- System: L. donovani amastigotes in THP-1 macrophages, DAPI imaging, 72 h
- Assay Details: L. donovani intracellular amastigote growth inhibitors, imaging, THP-1 host macrophages, single concentration (AID 977614);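 also: signal is the parasite per host cell ratio from DAPI stained kinetoplasts and nuclei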
Calls of active or inactive are those of the source.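 The calls were made as follows: active = parasite count per well reduced by over 3 SD from the mean, with host cell number above 80% of untreated; inactive = the rest.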
Outcome Measure: AC50

# annotated cases, reported AC50 shown
O=C(c1ccc2c(c1)OCO2)N1C[C@@H]2[C@H](c3ccccc31)[C@@H](CO)N2C(=O)CC1CC1    > 10 µM (inactive)
COCC(=O)N1[C@H](CO)[C@H]2c3ccccc3N(C(=O)Nc3ccccc3Cl)C[C@H]21    > 10 µM (inactive)
CC(=O)NC[C@H]1[C@H](c2ccc(C3=CCCC3)cc2)[C@@H](CO)N1Cc1cccnc1    > 10 µM (inactive)
Cc1noc(C)c1NC(=O)N(C)C[C@@H]1OCc2cn(nn2)CCCC(=O)N([C@@H](C)CO)C[C@@H]1C    > 10 µM (inactive)
C[C@H]1CN([C@@H](C)CO)C(=O)CCCn2nncc2CO[C@H]1CN(C)Cc1ccc2c(c1)OCCN2C    > 10 µM (inactive)

Give its AC50 value. Item: CN1C[C@@H]2[C@H](c3ccccc31)[C@@H](CO)N2Cc1ccccc1Cl > 10 µM (inactive)

Give its AC50 value. Item: CCN(C[C@@H]1[C@@H](c2ccc(-c3cccnc3)cc2)[C@H](CO)N1C(C)=O)C(C)=O > 10 µM (inactive)

Give its AC50 value. Item: Cc1noc(C)c1NC(=O)N(C)C[C@@H]1OCc2cnnn2CCCC(=O)N([C@@H](C)CO)C[C@@H]1C > 10 µM (inactive)

Give its AC50 value. Item: CNC[C@@H]1OCc2cnnn2CCCC(=O)N([C@H](C)CO)C[C@@H]1C > 10 µM (inactive)
